Target: AMPK
Test: AMPK activation, enzyme-linked immunosorbent assay
Assay type: biochemical
Settings: Table 14, compounds of Table 7
Description: Compounds of Table 1 were assayed for their ability to activate AMPK using an enzyme-linked immunosorbent assay. Compounds of Table 2 were assayed for their ability to activate AMPK using an enzyme-linked immunosorbent assay. Compounds of Table 3 were assayed for their ability to activate AMPK using an enzyme-linked immunosorbent assay. Compounds of Table 4 were assayed for their ability to activate AMPK using an enzyme-linked immunosorbent assay. […]
pEC50: −log10 of the molar value.
REPORTED METRIC: pEC50

compound="COc1ccc(C(=O)C2CCN(C(=O)c3ccc(C(=O)NC4CCN(Cc5ccc(F)c(OC)c5)C[C@@H]4C)cn3)CC2)cc1 (stereo partly shown) [Compound 7-97]" reported_metric=pEC50 result="> 6.00"
compound="CC(C)Oc1ccc(CN2CCC(NC(=O)c3ccc(C(=O)N4CCC(C(=O)c5ccc(N6CCCC6)cc5)CC4)nc3)CC2)cc1 [Compound 7-116]" reported_metric=pEC50 result="> 6.00"
compound="COc1ccc(C(=O)C2CCN(C(=O)c3ccc(C(=O)NC4CCN(Cc5ccc(OC)c(C#N)c5)C[C@H]4F)cn3)CC2)cc1 (stereo partly shown) [Compound 7-55]" reported_metric=pEC50 result="5.00 to 6.00"
compound="O=C(NC1CCN(Cc2ccc(OC(F)(F)F)cc2)C[C@H]1F)c1ccc(C(=O)N2CCC(Oc3ccc(S(=O)(=O)C4CC4)cc3)CC2)nc1 (stereo partly shown) [Compound 7-48]" reported_metric=pEC50 result="5.00 to 6.00"
compound="COc1ccc(C(=O)C2CCCN(C(=O)c3ccc(C(=O)NC4CCN(Cc5ccc(C#N)cc5)CC4)cn3)C2)cc1 (stereo not shown) [Compound 7-7]" reported_metric=pEC50 result="5.00 to 6.00"

Prompt: Please look up its pEC50: CC(=O)c1ccc(Oc2ccc(NC(=O)c3ccc(C(=O)N4CCC(Oc5ccc6c(c5)ncn6C)CC4)nc3)cn2)cc1 [Compound 7-46]
Completion: 5.00 to 6.00

Prompt: Try the compound COc1ccc(C(=O)C2CCN(C(=O)c3ccc(C(=O)NC4CCN(Cc5ccc(C(F)(F)F)cc5)C[C@@H]4F)cn3)CC2)cc1 (stereo partly shown) [Compound 7-28]
Completion: > 6.00

Prompt: // repeat for COc1ccc(CN2CCC(NC(=O)c3ccc(C(=O)N4CCC(C(=O)c5ccc(OC)cc5)CC4)nc3)[C@H](F)C2)cc1 (stereo partly shown) [Compound 7-26] and report
Completion: > 6.00

Prompt: Here is the next compound: N#Cc1ccc(OC2CCN(C(=O)c3ccc(C(=O)Nc4ccc(Oc5ccc(S(F)(F)(F)(F)F)cc5)nc4)nc3)CC2)cc1 [Compound 7-5]
Completion: > 6.00

Prompt: Same question for COc1ccc(C(=O)C2CCN(C(=O)c3ccc(C(=O)NC4CCN(Cc5ccc(F)c(C(F)(F)F)c5)C[C@H]4F)cn3)CC2)cc1 (stereo partly shown) [Compound 7-45] please.
Completion: > 6.00
